# System: MS2 coat protein
# test-description: apparent KD of MS2 coat protein; designed switch direction (-1 OFF switch, 1 ON switch): -1; higher = weaker reporter binding
# cond: input ligand: none
The following sequences are listed with their measured apparent KD of MS2 coat protein values.
Please state the number and follow it with the unit.

AGCAUGUGAGGAUAUGCGGACUCCGGUAAAGCUGGAGUCCAGUAGAAGGCACAUGAGGAUCACCCAUGUGAGAU [Uszadi] (Eterna round: R96, puzzle: Exclusion 4)    0.0632 µM
CCAUGGGAGCGAGGAUAUAGACCAUGGGAAGAGCUAGAAGGCGCUGACAUGAGGAUCACCCAUGUGUUCAUGAGGAGGUGGACA (Eterna round: R96, puzzle: Exclusion NG 1)    0.113 µM
ACAUGAGGAUCACCCAUGUACACGUAAUGGCUCAUGUAGAGUGAGGAUAUGUGAGACGAACGAGCACAGAAGGCACAAGACAGG [Deportation 10 - Jieux - Exclusion NG 3] (Eterna round: R96, puzzle: Exclusion NG 3)    0.0348 µM
CCUUAGUUAGGAUAUCGGAUUGUUCACGGUGCUCACCGGGUCGAGAAGGAACAUGAGGAUCACCCAUGUCACGA [Eternabot (L1) Solution 72] (Eterna round: R97, puzzle: Exclusion 4)    0.0425 µM

// below: apparent KD of MS2 coat protein requested for another sequence
In: State its apparent KD of MS2 coat protein on MS2 coat protein: CCCUCACAUGAGGAUCACCCAUGUAAGGAUAUCUUCGCUUUGACGUUGUUGAAUGCGAAGAGAAGGUGCACGGC [jl-ex1-4.71 ViennaUCT mod] (Eterna round: R97, puzzle: Exclusion 1)
Out: 0.0209 µM

----------
Overview of reported apparent KD of MS2 coat protein across a group of sequences:
# Test system: MS2 coat protein
# test-description: apparent KD of MS2 coat protein; higher = weaker reporter binding
# cond: Eterna round: R107; input ligand: none
Provide only the numeric value, understood in nM.

// below: answered sequences
GCUAGGUCAUCGGCCGCCACUAACGACGGCUCCAACAUGAGGAUCACCCAUGUGCCACAUGCGCAUAGGACCGGGAUGACCUAGC [SSTB NP+V+V2 #4]    36.9
UCGGGAACAUGAGGAUCACCCAUGUCAGAAGGAGCGCUGAGAGAAGCAGGUAGGUCGCUGACGUAGGAGCUCUCUUCCUAUACGC [Exclusion - Arginine A]    30.6

In: Recorded apparent KD of MS2 coat protein for UAGAUAGAGGGAAGGAGCGCAGUAACAUAACAUGAGGAUCACCCAUGUAAGAAAUUAAUAAUGCAGGUAGGUCGCCCAAGAUGAU [#10 Same State - Arginine B] , please?
Out: 13.6

----------
Recorded apparent KD of MS2 coat protein values for a group of sequences are listed next.
# System: MS2 coat protein
# test-description: apparent KD of MS2 coat protein; higher = weaker reporter binding
# cond: Eterna round: R107; input ligand: theophylline 20 uM
Remember to quote the unit after the number.

Some sequences with recorded apparent KD of MS2 coat protein:
CUAAAUAUAUCGGCCGCCACUUACUCAUGAGGUAACAACAUGAGGAUCACCCAUGUUUGAGGAUCAAGGACCGGGAUAUAUUUAG [AstrosSSTryB#16]    37.2 nM
AUAAUAAAGUCGGCCGCCACUAUAAACAUGAGGAACAUGAGGAUCACCCAUGUAUGAGGAUCACCUAGGACCGGGACAAAUAUUA [AstrosExyTryB#3]    88.3 nM
ACGCUGAUUGAUUACAAUCAGCGAAAAGAUACCAGUGGGUAAUCCCACCCUUGGCAGCUUAAAUCUGAGGAUCACCCAGGUGGUA [TheoAS 19 #MS2Right #BothOrNeither #AlternativeMS2]    382 nM
ACAUGAGGAUCACCCAUGUUAAACACAGAAGGAGCGUGAAGGAACACAGGUAGGUCGCUGUACUUAUUGAGUAUUCACUCGAUAC [JR_Nu_SSArginiA_Sub028]    16.5 nM
AGCCCUGUACUAGAUACCAGCUACAUGAGGAUCACCCAUGUACGAUAAGACUGUCCAUGUAGCCCUUGGCAGCUGCUCGCAUGUA [#13 Exclusion-TheophyllineB]    41.3 nM

In: Fill blank: measured apparent KD of MS2 coat protein of the sequence UACAUGAGGAUCACCCAUGUAUGAAUAGAUACCAGAUAAAAUAAGGUCCCUUGGCAGCUAGUGAAUAAAGGGUGGGUAAAAUAAU [Exclusion Theophyline A GF 1] is ____.
Out: 12.3 nM

In: // apparent KD of MS2 coat protein lookup, key: UGCGGACAUGAGGAUCACCCAUGUGCGGAUACCAGCAGCCGGCUCUGCCCUUGGCAGCCGCUACCCUUGCACGUUUAACGAUCCA [theeternabot_sameState_MS2_Theo_A_27]
Out: 60.2 nM

In: Name the recorded apparent KD of MS2 coat protein for UUUUAAAGCAUGGCGUAUCGGAAAACCGAUACCAGUACAGAAAUGUACCCUUGGCAGCGGCAUUUUACAUGAGGAUCACCCAUGU [Ex Theophylline A 2] .
Out: 18.4 nM

In: # lookup: apparent KD of MS2 coat protein of AAUUUGUCGGGUGAUACCAGCCUCGGCGCGUCUCGCGCUGAACAUGAGGAUCACCCAUGUGGCCCUUGGCAGCACAUGACAAAUC [Raracere]
Out: 557 nM

In: What value of measured apparent KD of MS2 coat protein is listed for GGGCGCUAUCCCGCGAGGGAUAGCGUUCAACGAGGACCGGUACGGCCGCCACUCGAACGAGUGGUGACAUGAGGAUCACCCAUGU [Iaa] ?
Out: 66.4 nM

In: # get_value(readout='apparent KD of MS2 coat protein', item= UGACAUUGCUCAGAUACCAGACAUGAGCAUCAGCCAUGUACCAAGAGUACAUAUUAAAAUGUCCCUUGGCAGCUGAGCAAUGUCU [Mod of Eli's TheoBX5 #AlternateMS2 v1] )
Out: 18.7 nM

----------
# Tested on: MS2 coat protein
# test-description: apparent KD of MS2 coat protein; designed switch direction (-1 OFF switch, 1 ON switch): 1; higher = weaker reporter binding
# cond: input ligand: microRNA oligo, concentration not stated
measurement-label: apparent KD of MS2 coat protein (nM)
Write the answer as a number in nM, unit excluded.

In: Quick one: apparent KD of MS2 coat protein for GGUACUAACACAGGAUAUGCUAUCCUUUGGGUAGCAGAAGGGUGGUACAUGAGGAUCACCCAUGUGGUGCCAGGGCGUGAGCCC [JL SSNG1 1.96] (Eterna round: R96, puzzle: Same State NG 1) ?
Out: 538

In: Reported apparent KD of MS2 coat protein, sequence UGGCUCAGACGAGGAUAUAUGUGGUCACAUGAGGAUCACCCAUGUCUCGAGCUUCGGCUCGAGGCAUAGAAGGUGUCUGAGCCA [SSNG2/5-C2] (Eterna round: R96, puzzle: Same State NG 2) : ____
Out: 16

In: Given the entry AGCUAGUACCGAGGAUAUACAUACAUGAGGAUCACCCAUGUAUACAUGAAAUAUUGAGACUACAUGUAGAAGGCGGUACUAGCA [Mat - Same State NG 2 - JL mod - D44] (Eterna round: R96, puzzle: Same State NG 2) , report its measured apparent KD of MS2 coat protein.
Out: 28.4

In: Given the entry GGACGUCGAUCUCCUACUUAAACAUGAGGAUCACCCAUGUCACAGGAUAUGAGUCCGAUUAGGACUCAGAAGGGUGCGACGUCC [Fiskers NG3ss - 51] (Eterna round: R96, puzzle: Same State NG 3) , report its measured apparent KD of MS2 coat protein.
Out: 12.3

----------
# Test system: MS2 coat protein
# test-description: apparent KD of MS2 coat protein; higher = weaker reporter binding
# cond: Eterna round: R101; input ligand: none
Classify by measured apparent KD of MS2 coat protein: met if it is equal to or exceeds 7 nM, not met if it is smaller.

UCGGCCCGGGAGAAGGACAUGAGGAUCACCCAUGUCGCCGGGCCCGGGAAACCGGGCCCGGCCAUGUAGGAUAUCCCGGGCCGA [#This is a good prank 2] (puzzle (switch architecture): Inverted Exclusion NG 2)    not met

In: Tell me whether apparent KD of MS2 coat protein is at least 7 nM here: GGUCGACUUCAAGGAUAUGGACUGCUUUGCAGUCCAGAAGGUGAGGAUCACCCAUCUACGGUCAGGUUUCUGACCGAUCGACCU [#AddUracilToBrourdLoops 8 - Jieux - Exclusion NG1] (puzzle (switch architecture): Exclusion NG 1)
Out: met

In: // inclusive: apparent KD of MS2 coat protein at least 7 nM? input: UGUCGGAGCAGAGGAUAUUACAUGAGGAUCACCCAUGUAUGAACCAAUAGCUGGAAACAGCAAUGUAAGAAGGCUGCUCCGACA (puzzle (switch architecture): Exclusion NG 2)
Out: met

In: Assess whether reported apparent KD of MS2 coat protein for AAAUAACUCGAAGGAUAUCAGGGUGCACCUCAGUAAAACUGAGGUGCACCCUGAGAAGGUCGAGGAUCACCCGACCUAAAUAAA [#SharedSequence SLExNG1: 5-2] (puzzle (switch architecture): Small Loop Exclusion NG 1) sits at 7 nM or higher.
Out: met

In: Hi team, for GGUCGUCACAUAUACAUGAGGAUCACCCAUGUCAAAAGACAUGAGGAUAUGGAUCCUAAUUGGAUCCAGAAGGCAUGGACGACC [#HiddenHairpinInALoop - Mat - Same State NG 3 - JL Mod - D11] (puzzle (switch architecture): Same State NG 3) , is the recorded apparent KD of MS2 coat protein at or above 7 nM?
Out: met

In: Would you say AAAUAACUCGAAGGAUAUGACCCUCGAGGUGACUAAAAGUCACCUCGAGGGUCAGAAGGUCGAGGAUCACCCGACCUAAAUAAA [#SharedSequence SLExNG1: 5-1] (puzzle (switch architecture): Small Loop Exclusion NG 1) shows apparent KD of MS2 coat protein at minimum 7 nM?
Out: met

In: In plain terms: is recorded apparent KD of MS2 coat protein at least 7 nM for UAUAAUCUUUAAGGAUAUGACUCCGUUUCGGAGUCAGAAGGUGAGGAUCACCCACCUAGCUCAGGGUCGUUUGACCCUGAGCAU [#AddUracilToBrourdLoops 9 - Jieux - Exclusion NG1] (puzzle (switch architecture): Exclusion NG 1) ?
Out: met

In: Does apparent KD of MS2 coat protein meet or surpass 7 nM for UCGACGAAAGUCGAACGAUGUAGCAGAAGGACAUGAGGAUCACCCAUGUCAGCUGUAACAGCCAUGUAGGAUAUGCUACAUCGG [salish99_ISLExNG3_007 #endbits investigation] (puzzle (switch architecture): Inverted Small Loop Exclusion NG 3) ?
Out: not met
